system: poly(dA-dT)2; assay: Ethidium bromide assay, DNA-binding effects on poly; conditions: EtBr-DNA complex, compound 10 μM, 25 °C 30 min
resultType: Decrease in fluorescence (%) Poly (dA-dT)2

Some compounds with recorded Decrease in fluorescence (%) Poly (dA-dT)2:
O=C(O)C(/C=C/c1c(Cl)cccc1Cl)=N\Nc1nc(-c2ccc(Cl)cc2)cs1 ... 51.29
O=C(O)C(/C=C/c1ccc(Cl)cc1)=N\Nc1nc(-c2ccccc2)cs1 ... 56.91
O=C(O)C(/C=C/c1ccc(Cl)cc1)=N\Nc1nc(-c2ccc(Cl)cc2)cs1 ... 71.19
Cn1cc(NC(=O)c2cc(NC(=O)CN=C(N)N)cn2C)cc1C(=O)NCCC(=N)N [NT, netropsin, reference compound] ... 62.02
O=C(O)C(/C=C/c1c(Cl)cccc1Cl)=N\Nc1nc(-c2ccc(F)cc2)cs1 ... 55.27
O=C(O)C(/C=C/c1c(Cl)cccc1Cl)=N\Nc1nc(-c2ccc(Br)cc2)cs1 ... 42.62

(a) O=C(O)C(/C=C/c1ccc(Cl)cc1)=N\Nc1nc(-c2ccc(Br)cc2)cs1
(b) COc1ccc(-c2csc(N/N=C(/C=C/c3c(Cl)cccc3Cl)C(=O)O)n2)cc1
IN: Between a and b , whose measured Decrease in fluorescence (%) Poly (dA-dT)2 reads higher? State your choice using its label.
OUT: b
(b: 67.21%, a: 39.34%)

(I) O=C(O)C(/C=C/c1ccc(Cl)cc1)=N\Nc1nc(-c2ccc([N+](=O)[O-])cc2)cs1
(II) O=C(O)C(/C=C/c1c(Cl)cccc1Cl)=N\Nc1nc(-c2ccc([N+](=O)[O-])cc2)cs1
IN: Which of the two items, I and II , has the greater recorded Decrease in fluorescence (%) Poly (dA-dT)2? Select an item and report its label.
OUT: I
(I: 53.39%, II: 37.00%)
